Where do these numbers come from? They come from ChEMBL document CHEMBL5042549.

We begin with a simple list: items and their reported IC50.
Experiment: Inhibition of Escherichia coli MsbA preincubated for 10 mins followed by ATP addition and incubated for 1 hr by fluorescence polarization assay

C[C@H](Oc1ccc2ncc(/C=C/c3nn[nH]n3)c(C3CC3)c2c1)c1c(Cl)cccc1Cl | 2 nM
C[C@H](Oc1ccc(NC(=O)CC(N)=O)c(C2CC2)n1)c1c(Cl)ccc(F)c1Cl | 27 nM

Fill in: IC50 of C[C@H](Oc1ccc2ncc(/C=C/C(=O)O)c(C3CC3)c2c1)c1c(Cl)ccc(N)c1Cl is ___
14 nM

Similarly, C[C@H](Oc1cccc(C2CC2)c1)c1c(Cl)ccc(F)c1Cl ?
> 10000 nM

Same lookup for C[C@H](Oc1ccc2ccc(/C=C/c3nn[nH]n3)c(C3CC3)c2c1)c1c(Cl)cccc1Cl , please.
3 nM
